# Test system: Staphylococcus sp.
# TEST_SUMMARY: in vitro antibacterial evaluation, MIC by broth dilution
# Format: cell-based
# SETUP_CONDITIONS: broth dilution, 18 hours at 35° C.; strain GC 4541
Numbered stars: 1 amine (or outer) side, 2 acyl side, 3 side chain; on linkers, the order of the positions; unused ones are H or OH. Square brackets hold non-standard residues; d marks the D form. Peptide text beside a SMILES is read from it. * marks the point of attachment. ξ: configuration not given here. X6 = N=C1NCC(CC(N[*:1])C(=O)[*:2])N1C1OC(CO)C(O)C(O)C1O; ξEnduracididine(βξ-OH,4'ξ) = N=C1NCC(C(O)C(N)C(=O)O)N1; X2 = OCC1OC(OC2C(CO)OC(*)C(O)C2O)C(O)C(O)C1O; ξPhe(βξ-Me) = CC(c1ccccc1)C(N)C(=O)O

MOLECULE	TARGET_SYSTEM	MIC Staphylococcus aureus (GC 4541)
CC(c1ccccc1)C1NC(=O)CNC(=O)C(CO)NC(=O)C(C(O)C2CNC(=N)N2C2OC(CO)C(O)C(O)C2O)NC(=O)C(C(O)C2CNC(=N)N2)NC(=O)C(Cc2ccc(OC3OC(CO)C(OC4OC5COC(c6cccc(Cl)c6)OC5C(O)C4O)C(O)C3O)cc2)NC1=O (centres unmarked)	Staphylococcus sp.	2 µg/mL
CC(c1ccccc1)C1NC(=O)CNC(=O)C(CO)NC(=O)C(C(O)C2CNC(=N)N2C2OC(CO)C(O)C(O)C2O)NC(=O)C(C(O)C2CNC(=N)N2)NC(=O)C(Cc2ccc(OC3OC(CO)C(OC4OC(COCc5cccs5)C(O)C(O)C4O)C(O)C3O)cc2)NC1=O (centres unmarked)	Staphylococcus sp.	8 µg/mL
CC(c1ccccc1)C1NC(=O)CNC(=O)C(CO)NC(=O)C(CC2CNC(=N)N2C2OC(CO)C(O)C(O)C2O)NC(=O)C(C(O)C2CNC(=N)N2)NC(=O)C(Cc2ccc(OC3OC(CO)C(OC4OC(CO)C(O)C(O)C4O)C(O)C3O)cc2)NC1=O (stereo not drawn) [Example 284b] (cyclo(G[ξPhe(βξ-Me)]Y(X2)[ξEnduracididine(βξ-OH,4'ξ)][X6]S); configuration not given here)	Staphylococcus sp.	>128 µg/mL
CCCc1ccc(C2OCC3OC(OC4C(CO)OC(Oc5ccc(CC6NC(=O)C(C(C)c7ccccc7)NC(=O)CNC(=O)C(CO)NC(=O)C(C(O)C7CNC(=N)N7C7OC(CO)C(O)C(O)C7O)NC(=O)C(C(O)C7CNC(=N)N7)NC6=O)cc5)C(O)C4O)C(O)C(O)C3O2)cc1 (centres unmarked)	Staphylococcus sp.	1 µg/mL
CCCCCCCC1OCC2OC(OC3C(CO)OC(Oc4ccc(CC5NC(=O)C(C(C)c6ccccc6)NC(=O)CNC(=O)C(CO)NC(=O)C(C(O)C6CNC(=N)N6C6OC(CO)C(O)C(O)C6O)NC(=O)C(C(O)C6CNC(=N)N6)NC5=O)cc4)C(O)C3O)C(O)C(O)C2O1 (centres unmarked)	Staphylococcus sp.	1 µg/mL

* * *

Entries and their Anatomical Pathology (Day 10), Kidney
# TEST_SUMMARY: anatomic pathology (histopathology of heart and kidney) in mice
# Assay type: in vivo
# SETUP_CONDITIONS: CD-1 mice, 20 mg/kg intravenously daily for 9 days, necropsy day 10, microscopic histopathology
READOUT: Anatomical Pathology (Day 10), Kidney

COMPOUND	TEST_VALUE
CC(c1ccccc1)C1NC(=O)CNC(=O)C(CO)NC(=O)C(C(O)C2CN(Cc3ccc4ccccc4c3)C(=N)N2C2OC(CO)C(O)C(O)C2O)NC(=O)C(C(O)C2CNC(=N)N2)NC(=O)C(Cc2ccc(OC3OC(CO)C(OC4OC(CO)C(O)C(O)C4O)C(O)C3O)cc2)NC1=O (stereo not shown)	0
CC(c1ccccc1)C1NC(=O)CNC(=O)C(CO)NC(=O)C(C(O)C2CN(Cc3ccccc3)C(=N)N2C2OC(CO)C(O)C(O)C2O)NC(=O)C(C(O)C2CNC(=N)N2)NC(=O)C(Cc2ccc(OC3OC(CO)C(OC4OC(CO)C(O)C(O)C4O)C(O)C3O)cc2)NC1=O (stereo not shown)	0
CC(C1CCCCC1)C1NC(=O)CNC(=O)C(CO)NC(=O)C(C(O)C2CNC(=N)N2C2OC(CO)C(O)C(O)C2O)NC(=O)C(C(O)C2CNC(=N)N2)NC(=O)C(Cc2ccc(OC3OC(CO)C(OC4OC5COC6(OC5C(O)C4O)C4CC5CC(C4)CC6C5)C(O)C3O)cc2)NC1=O (stereo not shown)	0
